details: in 1,2-dichloroethane, 333.15 K
readout type: solubility (mole fraction)
Reply with the value as a number alone.

Sure, the documented solubility (mole fraction) for CC1(C)COP(=O)(Oc2cccc(OP3(=O)OCC(C)(C)CO3)c2)OC1 is 0.0564

---

details: in methyl acetate, 298.15 K
readout type: solubility (mole fraction)
Reply with the value as a number alone.

Sure, the documented solubility (mole fraction) for CC1(C)COP(=O)(Oc2cccc(OP3(=O)OCC(C)(C)CO3)c2)OC1 is 0.00281

---

conditions: in toluene, 333.15 K
readout type: solubility (mole fraction)
Reply with the value as a number alone.

Sure, the documented solubility (mole fraction) for CC1(C)COP(=O)(Oc2cccc(OP3(=O)OCC(C)(C)CO3)c2)OC1 is 0.0009
